Test: Cmax in Sprague-Dawley rat at 10 mg/kg, po measured upto 24 hrs by LC-MS/MS analysis
Assay type: ADME, organism-based
Set-up: route oral, dose 10 mg/kg, time <=24
Conditions: in vivo
Assay readout: Cmax (ng/mL)
Supply the numeric figure in ng/mL, leaving out any unit text.

If you can, please state the reported Cmax value of COc1ccc2c(c1OCC1CCCCC1)CN1CCc3cc4c(cc3C1C2)OCO4 (stereo unspecified) .
428

###

Assay: Clearance in Sprague-Dawley rat at 1 mg/kg, iv measured upto 12 hrs by LC-MS/MS analysis
Format: ADME, organism-based
Details: in vivo
Assay readout: clearance (mL/min/kg)
Give the number; mL/min/kg is assumed, so skip it.

clearance for COc1ccc2c(c1OCC1CCCCC1)CN1CCc3cc4c(cc3C1C2)OCO4 (stereo unspecified) ?
25.8

###

Assay: MRT (0 to infinity) in Sprague-Dawley rat at 1 mg/kg, iv measured upto 12 hrs by LC-MS/MS analysis
Format: ADME, organism-based
Conditions: in vivo
Assay readout: MRT inf (h)
Give the value, in units of h, as a plain number.

Which measured MRT inf value corresponds to COc1ccc2c(c1OCC1CCCCC1)CN1CCc3cc4c(cc3C1C2)OCO4 (stereo unspecified) ?
3.18

###

Assay: Tmax in Sprague-Dawley rat at 10 mg/kg, po measured upto 24 hrs by LC-MS/MS analysis
Format: ADME, organism-based
Conditions: in vivo
Assay readout: Tmax (h)
State the answer as a number, implicitly in h.

Entry COc1ccc2c(c1OCC1CCCCC1)CN1CCc3cc4c(cc3C1C2)OCO4 (stereo unspecified) : reported Tmax = ?
6.67

###

Test: Tmax in Sprague-Dawley rat at 1 mg/kg, iv measured upto 12 hrs by LC-MS/MS analysis
Format: ADME, organism-based
Conditions: in vivo
Assay readout: Tmax (min)
Report the value in min with no unit label.

What value of Tmax has been recorded for this entry: COc1ccc2c(c1OCC1CCCCC1)CN1CCc3cc4c(cc3C1C2)OCO4 (stereo unspecified)
1.98

###

Experiment: Oral bioavailability in Sprague-Dawley rat at 10 mg/kg measured upto 24 hrs by LC-MS/MS analysis
Format: ADME, organism-based
Conditions: in vivo
Assay readout: bioavailability (%)
Your answer is read as %, so omit the unit and give the number.

Which bioavailability reading was recorded for the compound COc1ccc2c(c1OCC1CCCCC1)CN1CCc3cc4c(cc3C1C2)OCO4 (stereo unspecified) ?
65.1
